TARGET_OR_SYSTEM: HLA-A*02:01;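 also: lysates heated 10 min at 37–73 °C, complexes pulled down with pan-HLA I antibody, peptide signal by DIA-MS relative to 37 °C, Tm where half the complex is unfolded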
ASSAY_EXPLANATION: thermal melting temperature (Tm) of peptide-HLA complex; higher = more thermostable pHLA complex
CONDITION_NOTES: C1R-A*02:01
Over roughly 1,100 sequences, “thermal melting temperature (Tm) of peptide-HLA complex” has its median near 58; the lowest 2% begin near 42. Only a selection was taken, and the lowest values are over-represented in it overall.
MEASUREMENT_LABEL: thermal melting temperature (°C)

> print(dat)
    seq.string            measurement.label  reported
1  AMSNLVPPVEL  thermal melting temperature      53.7
2  FLPDPSALQNL  thermal melting temperature        55
3    YLSPDLSKV  thermal melting temperature      61.9
4  ILANDGVLLAA  thermal melting temperature      59.6
